target: human PPARβ LBD (Homo sapiens); assay: Test B radioligand competition binding assay (SPA), PPARβ LBD-GST fusion protein; settings: concentration that inhibits 50% of interaction between PPARβ LBD and tritiated ligand
Sequence (Q03181 211-439 limits assumed): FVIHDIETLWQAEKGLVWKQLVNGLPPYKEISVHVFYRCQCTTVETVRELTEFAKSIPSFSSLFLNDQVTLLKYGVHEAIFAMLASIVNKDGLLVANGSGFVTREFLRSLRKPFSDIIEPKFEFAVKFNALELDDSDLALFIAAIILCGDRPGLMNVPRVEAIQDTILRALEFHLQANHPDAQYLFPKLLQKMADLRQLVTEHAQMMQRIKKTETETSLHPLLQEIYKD
parameter: IC50 (nM)
Use nM as the unit, but write only the number.

| compound | parameter | unit.label | quantitative.result |
| --- | --- | --- | --- |
| Cc1cc(SCCCCOc2ccc(Cl)cc2Cl)ccc1OCC(=O)O [Compound 31] | IC50 | nM | 6.8 |

Proceed to the following item.
Name the recorded IC50 of the item COc1cc(C(C)(C)C(=O)O)ccc1SCc1ccc(-c2ccc(C(F)(F)F)cn2)cc1 [Compound 21] in your answer.
449
